- protocol: Permeability coefficient through artificial membrane in presence of stirred water layer
- measurement_conditions: artificial membrane
measurement_kind: LogP app

INSERT INTO assay_data (molecule, measurement_kind, test_result) VALUES
  ('O=C(O)c1ccccc1Nc1ccccc1 [FENAMIC ACID]', 'LogP app', -4.61),
  ('CN1CCN(CC(=O)N2c3ccccc3C(=O)Nc3cccnc32)CC1 [PIRENZEPINE]', 'LogP app', -6.09);

Now look at this entry.
Inquiry: Give its LogP app value. Item: CC(=O)Nc1ccc(O)cc1 [ACETAMINOPHEN]
Reply text: -5.65

* * *

- protocol: Permeability coefficient through artificial membrane in presence of stirred water layer
- measurement_conditions: PAMPA
// LogP app lookup, one value per entry
Please reply with the number alone, leaving off any unit.

Inquiry: Give its LogP app value. Item: C=CCOc1ccccc1OCC(O)CNC(C)C (stereo not drawn)
Reply text: -5.03

Inquiry: Give its LogP app value. Item: CC(C)NCC(O)COc1cccc2[nH]ccc12 (stereo not drawn)
Reply text: -5.85

Inquiry: Give its LogP app value. Item: Clc1cccc(Cl)c1N=C1NCCN1
Reply text: -4.94

Hey, just so you know, these numbers are from ChEMBL document CHEMBL1143050.
